# Tested on: E. coli ATCC 25922
# Format: cell-based, Escherichia coli
# Settings: ATCC 25922, 18 h
Ends that are not written are not given here.
Measured Property: MIC (µM)
Provide only the numeric value, understood in µM.

Problem: Quick check: MIC of WRIRRRWPRLPRPRWRPRFPPP [Peptide B7-T6] ?
Result: 0.5

Problem: So what does the record say about MIC for WRIRRRWPRLPRPRWRPRFPPPFPIPR [Peptide B7-T11] ?
Result: 2

Problem: # lookup: MIC of WRIRRRWPRLPRPRWRPLPFPRPGPRP [Peptide B7-B11]
Result: 1

Problem: Look up MIC for this sequence: WRIRRRWPRLPRPRWRPWFPPR [Peptide B7-L6]
Result: 4

Problem: I am curious: what MIC value has been reported for WRIRRRWPRLPRPRWRPWFPPRFPIPR [Peptide B7-L11] ?
Result: 2

Problem: What MIC value was documented for this sequence, WRIRRRWPRLPRPRWRPLPFPR [Peptide B7-B6] ?
Result: 2
